Assign remaining activity at 0.1 µM to each entry below.
target: panel of 60 human kinases (Homo sapiens, UniProt Q16539); construct: purchased Reaction Biology Corp; test: Radiolabeled ATP kinase assay, panel of 60 kinases (Table S5); type: biochemical; conditions: P38a/MAPK14; 0.1 μM; 10 μM ATP; read-out: % Enzyme Activity (relative to DSMO controls)
Sequence (Q16539 whole entry): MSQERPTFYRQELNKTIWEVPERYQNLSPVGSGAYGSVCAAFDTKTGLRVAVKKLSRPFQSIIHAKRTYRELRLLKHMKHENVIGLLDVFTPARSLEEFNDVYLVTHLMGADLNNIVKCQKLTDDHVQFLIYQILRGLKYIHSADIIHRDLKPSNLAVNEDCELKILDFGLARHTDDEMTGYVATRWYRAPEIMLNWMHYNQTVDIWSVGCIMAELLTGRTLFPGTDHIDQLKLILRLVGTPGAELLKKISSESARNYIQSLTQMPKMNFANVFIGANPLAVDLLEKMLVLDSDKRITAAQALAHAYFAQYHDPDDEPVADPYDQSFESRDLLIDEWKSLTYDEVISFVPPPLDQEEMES
Please give the number followed by its unit.

{"compound": "CN1CCN(Cc2ccc(-c3cnc4[nH]cc(-c5ccoc5)c4c3)cc2)CC1 [Compound 7w]", "recorded.metric": "remaining activity at 0.1 µM", "observed.measurement": "110%"}
{"compound": "CN1CCN(Cc2ccc(-c3cnc4[nH]cc(-c5ccc6c(c5)OCCO6)c4c3)cc2)CC1 [Compound 7d]", "recorded.metric": "remaining activity at 0.1 µM", "observed.measurement": "102%"}
{"compound": "CN1CCN(Cc2ccc(-c3cnc4[nH]cc(-c5ccncc5)c4c3)cc2)CC1 [Compound 7n]", "recorded.metric": "remaining activity at 0.1 µM", "observed.measurement": "101%"}

## Task # input compound: COc1ccccc1-c1c[nH]c2ncc(-c3ccc(CN4CCN(C)CC4)cc3)cc12 [Compound 7at] ; wanted: its remaining activity at 0.1 µM
## Result 96.2%
